TARGET_OR_TEST_SYSTEM: human μ opiate receptor (Homo sapiens)
Construct: purchased PerkinElmer Life Sciences, Zaventem, Belgium RB-HOM; host or cells: CHO-K1 cells (membrane preparation)
Sequence (P35372 whole entry): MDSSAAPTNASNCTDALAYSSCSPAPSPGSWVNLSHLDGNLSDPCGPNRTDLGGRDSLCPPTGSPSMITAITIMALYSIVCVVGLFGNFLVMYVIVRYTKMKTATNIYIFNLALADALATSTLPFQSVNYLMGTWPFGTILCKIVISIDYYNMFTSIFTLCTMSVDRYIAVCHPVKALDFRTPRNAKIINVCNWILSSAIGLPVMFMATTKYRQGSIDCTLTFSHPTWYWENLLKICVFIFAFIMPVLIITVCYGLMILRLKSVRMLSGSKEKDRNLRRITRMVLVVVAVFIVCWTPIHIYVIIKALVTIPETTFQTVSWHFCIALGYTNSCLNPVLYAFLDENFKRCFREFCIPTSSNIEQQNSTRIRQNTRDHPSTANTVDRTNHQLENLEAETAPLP
ASSAY_INFO: Affinity for the human μ opiate receptor ([3H]-naloxone displacement, CHO-K1 receptor membrane preparation, SPA)
Assay type: binding
EXPERIMENTAL_PARAMETERS: test concentration of 1 μM
// reported μ (binding on the μ opioid receptor, % inhibition) for each item listed

COc1cc(C)c(S(=O)(=O)N2CCC(OCC(=O)NCC3CCC(C(c4ccc(F)cc4)N(C)C)CC3)C2)c(C)c1C (stereo not shown) | 50%

Memo: Cc1cc(C)c(S(=O)(=O)N2CCC(OCC(=O)NCCC3CCC(C(c4ccc(Cl)cc4)N(C)C)CC3)C2)c(C)c1 (stereo not shown) , reported μ (binding on the μ opioid receptor, % inhibition): 42%

Lab book: μ (binding on the μ opioid receptor, % inhibition) of COc1ccc(S(=O)(=O)N(C)CCOCC(=O)NC2CCC(C(c3cccc(F)c3)N(C)C)CC2)cc1 (stereo not shown) noted as 70%

response.value for CN(C)C(c1ccc(F)cc1)C1CCC(CCNC(=O)COCCN(C)S(=O)(=O)c2ccc(F)cc2)CC1 (stereo not shown) (field: μ (binding on the μ opioid receptor, % inhibition)) = 37%

Value of μ (binding on the μ opioid receptor, % inhibition) reported for the compound COc1cc(C)c(S(=O)(=O)N(CCOCC(=O)NC2CCC(C(c3ccc(F)cc3)N(C)C)CC2)Cc2ccccc2)c(C)c1C (stereo not shown) is 34%

get_value(item= COc1ccc(S(=O)(=O)N2Cc3ccccc3CC2COCC(=O)NCCC2CCC(C(c3ccc(Cl)cc3)N(C)C)CC2)cc1 (stereo not shown) , readout=μ (binding on the μ opioid receptor, % inhibition)) returns 59%

Given item Cc1cc(C)c(S(=O)(=O)N2CCC(OCC(=O)NCC3CCC(C(c4ccc(Cl)cc4)N(C)C)CC3)C2)c(C)c1 (stereo not shown) , the value recorded as its μ (binding on the μ opioid receptor, % inhibition) is 55%

For reference, reported μ (binding on the μ opioid receptor, % inhibition) for CN(C)C(CCc1ccccc1)C1CCC(CNC(=O)COC2CCN(S(=O)(=O)c3ccc(F)cc3)C2)CC1 (stereo not shown) stands at 18%

# compound COc1cc(C)c(S(=O)(=O)N2CCN(CCOCC(=O)NCC3CCC(C(c4ccc(F)cc4)N(C)C)CC3)CC2)c(C)c1C (stereo not shown) ; its μ (binding on the μ opioid receptor, % inhibition) = 55%

Entry COc1ccc(S(=O)(=O)N2CCCC2COCC(=O)NCCC2CCC(C(c3cccc(F)c3)N(C)C)CC2)cc1 (stereo not shown) — recorded μ (binding on the μ opioid receptor, % inhibition) = 85%

The recorded μ (binding on the μ opioid receptor, % inhibition) for entry CN(C)C(c1cccc(F)c1)C1CCC(CNC(=O)COCCN(C)S(=O)(=O)c2ccc(F)cc2)CC1 (stereo not shown) equals 79%

Form: compound = Cc1ccc(S(=O)(=O)N2CCC(OCC(=O)NCCC3CCC(C(c4ccc(F)cc4)N(C)C)CC3)C2)cc1 (stereo not shown) ; μ (binding on the μ opioid receptor, % inhibition) = 34%

Documented μ (binding on the μ opioid receptor, % inhibition) of COc1ccc(S(=O)(=O)N(C)CCOCC(=O)NCCC2CCC(C(c3ccc(F)cc3)N(C)C)CC2)cc1 (stereo not shown) : 39%

###

TARGET_OR_TEST_SYSTEM: serotonin (5-HT) reuptake (Rattus norvegicus, UniProt P31652)
Construct: synaptosomes are freshly isolated from areas of the rat brain; from tissue; host or cells: rat brain synaptosomes (P2 fraction)
Sequence (P31652 whole entry): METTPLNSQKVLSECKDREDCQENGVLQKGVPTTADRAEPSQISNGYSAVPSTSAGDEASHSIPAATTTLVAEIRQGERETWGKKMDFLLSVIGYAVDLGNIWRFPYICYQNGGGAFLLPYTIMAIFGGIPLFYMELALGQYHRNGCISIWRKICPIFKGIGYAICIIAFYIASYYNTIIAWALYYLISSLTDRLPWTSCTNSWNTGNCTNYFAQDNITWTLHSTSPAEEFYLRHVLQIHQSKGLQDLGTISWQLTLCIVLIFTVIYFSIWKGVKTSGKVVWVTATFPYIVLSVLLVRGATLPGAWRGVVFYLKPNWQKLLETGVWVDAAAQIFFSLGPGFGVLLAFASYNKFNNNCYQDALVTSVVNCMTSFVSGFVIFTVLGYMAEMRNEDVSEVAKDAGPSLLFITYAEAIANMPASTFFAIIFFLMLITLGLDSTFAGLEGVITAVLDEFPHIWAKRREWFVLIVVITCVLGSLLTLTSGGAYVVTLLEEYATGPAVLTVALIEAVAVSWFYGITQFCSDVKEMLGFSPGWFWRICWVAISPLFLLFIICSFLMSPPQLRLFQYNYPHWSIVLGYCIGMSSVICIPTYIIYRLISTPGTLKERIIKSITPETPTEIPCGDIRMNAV
ASSAY_INFO: Inhibition of serotonin (5HT) reuptake in synaptosomes from rat brain
Type: biochemical
EXPERIMENTAL_PARAMETERS: test concentration of 10 μM
Recorded 5-HT (inhibition of reuptake of serotonin, % inhibition) by entry

Sample records with 5-HT (inhibition of reuptake of serotonin, % inhibition):
CN(C)C(c1ccc(F)cc1)C1CCC(CCNC(=O)COCCN(C)S(=O)(=O)c2ccc(Cl)cc2Cl)CC1 (stereo not shown) | 73%
COc1ccc(S(=O)(=O)N2CCCCC2COCC(=O)NCC2CCC(C(c3ccc(Cl)cc3)N(C)C)CC2)cc1OC (stereo not shown) | 89%
Cc1ccc(S(=O)(=O)N2CCC(OCC(=O)NC3CCC(C(c4ccc(F)cc4)N(C)C)CC3)C2)cc1 (stereo not shown) | 85%
CN(C)C(c1ccc(F)cc1)C1CCC(CNC(=O)COCCC2CCN(S(=O)(=O)c3ccccc3)CC2)CC1 (stereo not shown) | 77%
CN(C)C(c1ccc(F)cc1)C1CCC(CNC(=O)COC2CCN(S(=O)(=O)c3ccc(Cl)cc3Cl)C2)CC1 (stereo not shown) | 85%
CN(C)C(c1cccc(F)c1)C1CCC(CCNC(=O)COCCN(C)S(=O)(=O)c2ccc(F)cc2)CC1 (stereo not shown) | 101%

Next compound, please.
Documented 5-HT (inhibition of reuptake of serotonin, % inhibition) of Cc1cc(C)c(S(=O)(=O)N(C)CCOCC(=O)NCCC2CCC(C(c3cccs3)N(C)C)CC2)c(C)c1 (stereo not shown) : 93%

###

TARGET_OR_TEST_SYSTEM: bradykinin 1 receptor (B1R) of the rat (Rattus norvegicus, UniProt P97583)
Construct: expressed in transfected cells; host or cells: CHO K1 cells
Sequence (P97583 whole entry): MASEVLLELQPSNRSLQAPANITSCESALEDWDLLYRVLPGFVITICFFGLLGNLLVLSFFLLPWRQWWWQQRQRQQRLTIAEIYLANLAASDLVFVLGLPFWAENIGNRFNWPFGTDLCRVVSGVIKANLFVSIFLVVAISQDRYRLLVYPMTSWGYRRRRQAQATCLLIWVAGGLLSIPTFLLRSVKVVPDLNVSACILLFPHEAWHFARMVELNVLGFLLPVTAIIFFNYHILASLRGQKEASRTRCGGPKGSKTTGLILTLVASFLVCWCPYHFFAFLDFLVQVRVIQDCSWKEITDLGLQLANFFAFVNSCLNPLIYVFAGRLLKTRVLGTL
ASSAY_INFO: Functional investigation on the rat bradykinin 1 receptor (B1R), Ca2+ FLIPR assay in CHO K1 rB1R cells
Type: cell-based
EXPERIMENTAL_PARAMETERS: B1R antagonism rat; test substance 10 μM; Ca2+ FLIPR, CHO K1 rB1R cells
QUANTITY_MEASURED: B1R Ant. r [10 μM] % Inhibition
Quick note: unit goes after the number.

CN(C)C(c1ccc(F)cc1)C1CCC(NC(=O)COCCN(C)S(=O)(=O)c2cccc(C(F)(F)F)c2)CC1 (stereo not shown) [Example 438] | −10%
COc1cc(C)c(S(=O)(=O)N(C)CCOCC(=O)NCC2CCC(C(CCc3ccccc3)N(C)C)CC2)c(C)c1 (stereo not shown) [Example 525] | 93%
COc1ccc(S(=O)(=O)N2CCCCC2COCC(=O)NCC2CCC(C(CCc3ccccc3)N(C)C)CC2)c(OC)c1 (stereo not shown) [Example 420] | 2%
COc1cc(C)c(S(=O)(=O)N2CCN(CCOCC(=O)NC3CCC(C(c4ccc(F)cc4)N(C)C)CC3)CC2)c(C)c1C (stereo not shown) [Example 222] | 10%

Entry under test: COc1cc(C)c(S(=O)(=O)N(C)CCOCC(=O)NC2CCC(C(c3ccccc3)N(C)C)CC2)c(C)c1 (stereo not shown) [Example 239] . Its B1R Ant. r [10 μM] % Inhibition was 97%

B1R Ant. r [10 μM] % Inhibition for CN(C)C(c1ccc(F)cc1)C1CCC(NC(=O)COCCN(C)S(=O)(=O)c2ccc(OC(F)(F)F)cc2)CC1 (stereo not shown) [Example 361] is 31%

Given item CN(C)C(c1cccc(F)c1)C1CCC(CCNC(=O)COCCN(C)S(=O)(=O)c2ccc(F)cc2)CC1 (stereo not shown) [Example 218] , the value recorded as its B1R Ant. r [10 μM] % Inhibition is 28%

Looking up COc1ccc(S(=O)(=O)N2CCCCC2COCC(=O)NCCC2CCC(C(c3ccc(Cl)cc3)N(C)C)CC2)c(OC)c1 (stereo not shown) [Example 474] , I see its B1R Ant. r [10 μM] % Inhibition listed as 10%

Reported B1R Ant. r [10 μM] % Inhibition ( CN(C)C(c1ccc(F)cc1)C1CCC(CCNC(=O)COC2CCN(S(=O)(=O)c3ccc(Cl)cc3)C2)CC1 (stereo not shown) [Example 464] ) = −6%

The recorded B1R Ant. r [10 μM] % Inhibition for COc1cc(C)c(S(=O)(=O)N2CCC(OCC(=O)NCC3CCC(C(c4cccc(F)c4)N(C)C)CC3)C2)c(C)c1 (stereo not shown) [Example 265] is 97%

The recorded B1R Ant. r [10 μM] % Inhibition for CN(C)C(c1ccc(F)cc1)C1CCC(CNC(=O)COC2CCN(S(=O)(=O)c3ccc(Cl)cc3Cl)C2)CC1 (stereo not shown) [Example 391] is 32%

Please fill in: B1R Ant. r [10 μM] % Inhibition reported for COc1ccc(S(=O)(=O)N(C)CCOCC(=O)NCC2CCC(C(CCc3ccccc3)N(C)C)CC2)cc1OC (stereo not shown) [Example 571] = 15%

Please fill in: B1R Ant. r [10 μM] % Inhibition reported for COc1cc(C)c(S(=O)(=O)N(CCOCC(=O)NCC2CCC(C(CCc3ccccc3)N(C)C)CC2)Cc2ccccc2)c(C)c1C (stereo not shown) [Example 562] = 23%

Per the records, this molecule ( COc1ccc(S(=O)(=O)N2CCC(OCC(=O)NC3CCC(C(c4cccc(F)c4)N(C)C)CC3)C2)cc1OC (stereo not shown) [Example 323] ) has B1R Ant. r [10 μM] % Inhibition equal to 23%

Field B1R Ant. r [10 μM] % Inhibition (entry CN(C)C(c1ccc(Cl)cc1)C1CCC(CNC(=O)COCCN(C)S(=O)(=O)c2cccc(C(F)(F)F)c2)CC1 (stereo not shown) [Example 314] ) reads 13%

The recorded B1R Ant. r [10 μM] % Inhibition for CN(C)C(c1ccc(F)cc1)C1CCC(NC(=O)COCCN(C)S(=O)(=O)c2ccc(F)cc2)CC1 (stereo not shown) [Example 357] is 27%
